- assay-summary: M. tuberculosis growth inhibition, HTS (AID 1259417);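 also: bacteria grown with compound for 5 days at 37 °C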
- assay-conditions: M. tuberculosis growth inhibition; stronger effect = higher value; concentration not given here
Out of some 1,100 compounds screened, about 760 (69%) were called active. So high a share suggests a set chosen from earlier hits. Some of the results follow.
Here, each record is paired with measured inhibition data.
Lab book: enter the figure in %, no units written.

Study these solved cases before continuing.
- compound: "COc1ccc(C2=CC(c3c(C)nn(-c4ccccc4)c3Cl)n3nnnc3N2)cc1OC (configuration not stated)"
  outcome-measure: "inhibition"
  meas-value: 93.4
- compound: "CCOC(=O)c1c(-c2ccc(OC)c(OC)c2)csc1NC(=O)c1cccc(OC)c1OC"
  outcome-measure: "inhibition"
  meas-value: -8.63
- compound: "CCOC(=O)COc1cccc(C=C2Oc3cc(OC)ccc3C2=O)c1"
  outcome-measure: "inhibition"
  meas-value: 54
- compound: "CCOC(=O)CN(C#N)c1nc(N(C)C)nc(N(C)C)n1"
  outcome-measure: "inhibition"
  meas-value: 98.9
- compound: "CCOC(=O)CSc1nc(N)c(C#N)c(-c2cccs2)c1C#N"
  outcome-measure: "inhibition"
  meas-value: 10.2

The recorded inhibition for entry COc1ccc(C(=O)CCN2CCCC(C)C2)cc1 (configuration not stated) equals 13.2

The recorded inhibition for entry `Cc1sc(NC(=O)c2cc3ccccc3oc2=O)c(C(=O)OC(C)C)c1C` equals 28.3

The recorded inhibition for entry `CCOC(=O)COc1ccc(C=C2Oc3cc(OC)ccc3C2=O)cc1` equals 79.9

The recorded inhibition for entry `CCCCOC(=O)CSc1nc(N)c(C#N)c(-c2ccc(OC)cc2)c1C#N` equals 30.9

The recorded inhibition for entry `CC(C)N=c1cc2n(-c3ccc(Cl)cc3)c3ccccc3nc-2cc1Nc1ccc(Cl)cc1` equals 99.5

The recorded inhibition for entry `CCCC(=O)N1CCN(c2ccc(NC(=O)c3ccc(-c4ccc(Cl)cc4)o3)cc2Cl)CC1` equals -21.3

The recorded inhibition for entry `Cc1ccc(-c2c[n+](CC(=O)Nc3nc(-c4ccc(F)cc4)cs3)c3n2CCC3)cc1` equals 14.8

The recorded inhibition for entry `CCOC(=O)C=CC(=O)Nc1nc(-c2ccccc2)cs1` equals 56

The recorded inhibition for entry `c1ccc(CC2CCN(c3nc4ccccc4n4cnnc34)CC2)cc1` equals 39.3

###

Here, each record is paired with measured inhibition data.
- assay-summary: M. tuberculosis growth inhibition, HTS (AID 1259417);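 also: bacteria grown with compound for 5 days at 37 °C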
- assay-conditions: M. tuberculosis growth inhibition; stronger effect = higher value; concentration not given here
About 760 (69%) of roughly 1,100 compounds were called active. So high a share suggests a set chosen from earlier hits. This is one part of the list.
Remember to follow the number with its unit.

- compound: "COc1cc(NC(=O)CC23CC4CC(CC(C4)C2)C3)ccc1NC(=O)c1ccco1"
  inhibition: "-3.8%"
- compound: "O=C(NCCC12CC3CC(CC(C3)C1)C2)c1ccc(Br)cc1"
  inhibition: "94.1%"

The recorded inhibition for entry COc1ccc(CC2SC(=NN=Cc3ccccc3O)NC2=O)cc1 (stereo unspecified) equals 97.1%

The recorded inhibition for entry `CCCCOc1cccc(C(=O)Nc2nnc(-c3ccc(C)cc3C)o2)c1` equals 77.5%

The recorded inhibition for entry `C=CCOC(=O)COc1ccc2cc(-c3ccc(Cl)cc3)c(=O)oc2c1` equals 99.5%

The recorded inhibition for entry `O=C(CSc1ccc(Br)cc1)Nc1cccc(Cl)c1` equals 16.8%

The recorded inhibition for entry `O=C(CCOc1ccccc1)Nc1nnc(-c2cc(Cl)ccc2Cl)o1` equals -1.65%
